- Assay System: SMARCA2 (Homo sapiens)
- Sequence (P51531 whole entry): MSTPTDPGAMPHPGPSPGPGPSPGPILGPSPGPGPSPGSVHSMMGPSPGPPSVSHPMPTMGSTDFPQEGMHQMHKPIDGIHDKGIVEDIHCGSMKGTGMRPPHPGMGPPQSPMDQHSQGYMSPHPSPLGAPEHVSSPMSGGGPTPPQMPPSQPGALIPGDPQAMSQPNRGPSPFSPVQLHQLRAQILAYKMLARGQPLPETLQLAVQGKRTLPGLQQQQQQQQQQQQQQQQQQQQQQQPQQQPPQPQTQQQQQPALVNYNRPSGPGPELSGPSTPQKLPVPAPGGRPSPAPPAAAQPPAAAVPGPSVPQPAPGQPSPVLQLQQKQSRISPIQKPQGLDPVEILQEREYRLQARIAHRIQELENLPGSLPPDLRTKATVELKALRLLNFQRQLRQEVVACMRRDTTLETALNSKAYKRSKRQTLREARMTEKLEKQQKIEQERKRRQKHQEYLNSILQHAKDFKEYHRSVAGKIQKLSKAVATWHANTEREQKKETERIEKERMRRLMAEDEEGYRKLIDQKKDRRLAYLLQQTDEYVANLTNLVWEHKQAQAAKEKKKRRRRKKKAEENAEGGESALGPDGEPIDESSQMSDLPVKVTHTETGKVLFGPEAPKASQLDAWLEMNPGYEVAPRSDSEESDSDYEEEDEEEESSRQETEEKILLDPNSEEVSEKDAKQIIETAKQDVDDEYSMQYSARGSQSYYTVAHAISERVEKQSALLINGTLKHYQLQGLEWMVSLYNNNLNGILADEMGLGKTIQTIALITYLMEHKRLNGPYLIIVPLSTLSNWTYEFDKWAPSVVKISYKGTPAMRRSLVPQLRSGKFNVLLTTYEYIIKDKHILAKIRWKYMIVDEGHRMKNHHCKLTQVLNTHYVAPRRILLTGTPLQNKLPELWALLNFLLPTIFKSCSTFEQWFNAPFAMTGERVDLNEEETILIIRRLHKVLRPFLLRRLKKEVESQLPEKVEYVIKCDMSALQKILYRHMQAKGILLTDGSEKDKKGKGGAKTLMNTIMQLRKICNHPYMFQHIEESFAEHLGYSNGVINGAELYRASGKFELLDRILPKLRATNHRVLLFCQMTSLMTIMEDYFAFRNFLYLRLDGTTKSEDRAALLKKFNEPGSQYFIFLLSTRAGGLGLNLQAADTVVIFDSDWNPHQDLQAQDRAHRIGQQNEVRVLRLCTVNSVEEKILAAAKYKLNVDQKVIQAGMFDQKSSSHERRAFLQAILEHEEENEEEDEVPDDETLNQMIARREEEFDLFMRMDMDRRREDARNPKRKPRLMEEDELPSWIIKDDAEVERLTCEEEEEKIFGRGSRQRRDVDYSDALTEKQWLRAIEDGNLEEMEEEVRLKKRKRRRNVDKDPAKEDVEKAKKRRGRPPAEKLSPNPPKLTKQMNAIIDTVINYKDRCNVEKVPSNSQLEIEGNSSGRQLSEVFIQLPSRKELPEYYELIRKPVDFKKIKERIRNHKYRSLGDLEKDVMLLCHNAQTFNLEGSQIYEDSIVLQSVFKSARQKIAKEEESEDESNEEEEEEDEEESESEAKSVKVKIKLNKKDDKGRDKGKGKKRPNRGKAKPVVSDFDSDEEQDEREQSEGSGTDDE
- Procedure Summary: SMARCA2 degradation in SW1573 cells (Western blot)
- Type: cell-based
- Parameters: endogenous in cells; host or cells: SW1573
- Condition Info: 1 nM, 24 hours
Measurement Kind: Degradation rate of SMARCA2 in SW1573 cells (%)
Give bare numbers, in %.

Please supply Degradation rate of SMARCA2 in SW1573 cells (%) for each of the following items, keeping them in order.
1. Cn1c(=O)n(C2CCC(=O)NC2=O)c2cc3c(cc21)C1(CCN(C(=O)[C@H]2CC[C@H](Cn4cc(-c5cc(-c6ccccc6O)nnc5N)cn4)CC2)CC1)CO3 (some centres unmarked) [SM-P-28]
2. Cn1c(=O)n(C2CCC(=O)NC2=O)c2ccc3c(c21)OCC31CCN(C[C@H]2CC[C@H](Cn3cc(-c4cc(-c5ccccc5O)nnc4N)cn3)CC2)CC1 (some centres unmarked) [SM-P-29]
3. Nc1nnc(-c2ccccc2O)cc1C#CC1CCC2(CC1)CC(N1CCN3c4cc(NC5CCC(=O)NC5=O)ccc4OCC[C@H]3C1)C2 (some centres unmarked) [SM-P-17]
4. Nc1nnc(-c2ccccc2O)cc1C#CC1CCC2(CC1)CC(N1CCN3c4cc(F)c(C(=O)N[C@H]5CCC(=O)NC5=O)cc4OC[C@H]3C1)C2 (some centres unmarked) [SM-P-6]
5. Nc1nnc(-c2ccccc2O)cc1C#CC1CCC2(CC1)CC(N1CCN3c4ccc(C(=O)N[C@H]5CCC(=O)NC5=O)cc4OCC[C@H]3C1)C2 (some centres unmarked) [SM-P-13]
6. Nc1nnc(-c2ccccc2O)cc1C#CC1CCC2(CC1)CC(N1CCC3(CC1)Cc1ccc(NC4CCC(=O)NC4=O)cc1O3)C2 (centres unmarked) [SM-P-25]

stdout:
[14, 100, 12, 20, 32, 11]

Please supply Degradation rate of SMARCA2 in SW1573 cells (%) for each of the following items, keeping them in order.
1. COc1cc2c(cc1C(=O)N[C@H]1CCC(=O)NC1=O)C1(CCN(C3CC4(CCC(C#Cc5cc(-c6ccccc6O)nnc5N)CC4)C3)CC1)CO2 (some centres unmarked) [SM-P-14]
2. Cn1c(=O)n(C2CCC(=O)NC2=O)c2cc3c(cc21)C1(CCN(C2CC4(CCC(C#Cc5cc(-c6ccccc6O)nnc5N)CC4)C2)CC1)CO3 (centres unmarked) [SM-P-4]
3. Nc1nnc(-c2ccccc2O)cc1C#CC1CCC2(CC1)CC(N1CCC3(CC1)CCC1(CC3)COc3c1ccc1c3CN(C3CCC(=O)NC3=O)C1=O)C2 (centres unmarked) [SM-P-2]
4. Nc1nnc(-c2ccccc2O)cc1C#CC1CCC2(CC1)CC(N1CCN3c4ccc(C(=O)N[C@H]5CCC(=O)NC5=O)c(F)c4OC[C@H]3C1)C2 (some centres unmarked) [SM-P-22]
5. Nc1nnc(-c2ccccc2O)cc1C#CC1CCC2(CC1)CC(N1CCC3(CC1)COc1cc(F)c(C(=O)N[C@H]4CCC(=O)NC4=O)cc13)C2 (some centres unmarked) [SM-P-21]
6. Nc1nnc(-c2ccccc2O)cc1C#CC1CCC2(CC1)CC(N1CCC3(CCc4cc(C(=O)N[C@H]5CCC(=O)NC5=O)c(F)cc4O3)CC1)C2 (some centres unmarked) [SM-P-7]
7. Nc1nnc(-c2ccccc2O)cc1C#CC1CCC2(CC1)CC(N1CCC3(CCc4ccc(NC5CCC(=O)NC5=O)cc4O3)CC1)C2 (centres unmarked) [SM-P-24]
8. Nc1nnc(-c2ccccc2O)cc1C#CC1CCC2(CC1)CC(N1CC3(CCc4cc(F)c(C(=O)N[C@H]5CCC(=O)NC5=O)cc4O3)C1)C2 (some centres unmarked) [SM-P-9]

stdout:
22
100
98
-9
-12
1
-29
3
